Origin of the recorded values: PubChem BioAssay

Experiment: drug combination growth inhibition, ovarian cancer – cell-based, oncology-focused library, rucaparib conditional, profiling panel (AID 1508598)
Conditions: patient-derived ovarian cancer cells, CellTiter-Glo viability, 144 h; at 0.0195 µM; OCI-P5x cells; without rucaparib; active compounds read low
Each item that follows carries a reported viability.
Readout kind: viability (%)

O=C(NOC[C@H](O)CO)c1ccc(F)c(F)c1Nc1ccc(I)cc1F | 67.5
COc1cc(Nc2nc3ccccc3nc2NS(=O)(=O)c2ccc(NC(=O)c3ccc(C)c(OC)c3)cc2)cc(OC)c1 | 107
C[C@H](NC(=O)Cc1cc(F)cc(F)c1)C(=O)N[C@@H]1C(=O)N(C)c2ccccc2-c2ccccc21 | 97.6
CC[C@@H]1C(=O)N(C)c2cnc(Nc3ccc(C(=O)NC4CCN(C)CC4)cc3OC)nc2N1C1CCCC1 | 18.2
CCn1c(-c2nonc2N)nc2c(C#CC(C)(C)O)ncc(OC[C@H]3CCCNC3)c21 | 109
COCCOc1nc(-c2ccc(Cl)c(Cl)c2)n(-c2ccc(NC(=O)CCl)cc2)n1 | 100
Oc1cccc(-c2nc(N3CCOCC3)c3oc4ncccc4c3n2)c1 | 100
C=CC(=O)N1CCC[C@@H](n2nc(-c3ccc(Oc4ccccc4)cc3)c3c(N)ncnc32)C1 | 103
Cc1cnc(-c2cnc(NCCNc3ccc(C#N)cn3)nc2-c2ccc(Cl)cc2Cl)[nH]1 | 102
